Reference for the values: patent US20240158446A1

- System: human lung cancer strain NCI-H441;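 further: cell proliferation inhibition after four days measured by CellTiter-Glo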
- assay_details: cells
- test_parameters: NCI-H441, 96 h, read-out: NCI-H441 IC50 (nM), NCI-H441 cell proliferation, 4 days, CellTiter-Glo
IC50 strictly less than 6 nM = Y. Otherwise N.

smiles_record	class_assignment
CCO[C@@H]1C[C@H]2C(=O)NC3(CCC3)C(=O)N(C)[C@@H](C3CCCC3)C(=O)N(C)[C@H](C(=O)N(C)CC)CC(=O)N(C)[C@@H](C3CC3)C(=O)N[C@@H]([C@@H](C)CC)C(=O)N(C)CC(=O)N(C)[C@H]3C/C=C\CCN(C3=O)[C@@H](Cc3ccc(C(F)(F)F)cc3)C(=O)N(C)CC(=O)N[C@@H](CCc3ccc(C(F)(F)F)c(OC)c3)C(=O)N2C1	Y
CCCN(C)C(=O)[C@@H]1CC(=O)N(C)[C@@H](C)C(=O)N[C@@H]([C@@H](C)CC)C(=O)N(C)CC(=O)N(C)[C@H]2C/C=C\CCN(C2=O)[C@@H](Cc2ccc(C(F)(F)F)cc2)C(=O)N(C)CC(=O)N[C@@H](CCc2cc(F)c(C(F)(F)F)c(F)c2)C(=O)N2C[C@H](F)C[C@H]2C(=O)NC2(CC(C)(C)C2)C(=O)N(C)[C@@H](C2CCCC2)C(=O)N1C	Y
CC[C@H](C)[C@@H]1NC(=O)[C@H](CC)N(C)C(=O)C[C@@H](C(=O)N(C)C)N(C)C(=O)[C@H](C2CCCC2)N(C)C(=O)C2(CCCC2)N(C)C(=O)[C@@H]2CCCN2C(=O)[C@H](CCc2cc(F)c(C(F)(F)F)c(F)c2)NC(=O)CN(C)C(=O)[C@H](Cc2ccc(C)cc2)N2CC/C=C\C[C@@H](C2=O)N(C)C(=O)CN(C)C1=O	Y

Task: hey, is IC50 for CC[C@H](C)[C@@H]1NC(=O)[C@H](CC(F)F)N(C)C(=O)C[C@@H](C(=O)N(C)C)N(C)C(=O)[C@H](C2CCCC2)N(C)C(=O)C2(CC(C)(C)C2)NC(=O)[C@@H]2CC(F)(F)CN2C(=O)[C@H](CCc2cc(F)c(C(F)(F)F)c(F)c2)NC(=O)CN(C)C(=O)[C@H](Cc2ccc(C(F)(F)F)cc2)N2CC/C=C\C[C@@H](C2=O)N(C)C(=O)CN(C)C1=O lower than 6 nM or not?
Output: Y

Task: Record CCCN(C)C(=O)[C@@H]1CC(=O)N(C)[C@@H](CC)C(=O)N[C@@H]([C@@H](C)CC)C(=O)N(C)CC(=O)N(C)[C@H]2C/C=C\CCN(C2=O)[C@@H](Cc2ccc(C(F)(F)F)cc2)C(=O)N(C)CC(=O)N[C@@H](CCc2cc(F)c(C(F)(F)F)c(F)c2)C(=O)N2C[C@H](OCC)C[C@H]2C(=O)NC2(CC(F)(F)C2)C(=O)N(C)[C@@H](C2CCCC2)C(=O)N1C : is its IC50 strictly below 6 nM?
Output: N

Task: # TODO verify IC50 < 6 nM strictly for this compound: CC[C@H](C)[C@@H]1NC(=O)[C@H](CC2CC2)N(C)C(=O)C[C@@H](C(=O)N(C)CC)N(C)C(=O)[C@H](C2CCCC2)N(C)C(=O)C2(CC(C)(C)C2)NC(=O)[C@@H]2C[C@H](C)CN2C(=O)[C@H](CCc2ccc(C(F)(F)F)c(OC)c2)NC(=O)CN(C)C(=O)[C@H](Cc2ccc(C)cc2)N2CC/C=C\C[C@@H](C2=O)N(C)C(=O)CN(C)C1=O
Output: N

###

- tested_target: GDP-bound KRAS wild-type protein (Homo sapiens)
- Sequence (P01116 whole entry): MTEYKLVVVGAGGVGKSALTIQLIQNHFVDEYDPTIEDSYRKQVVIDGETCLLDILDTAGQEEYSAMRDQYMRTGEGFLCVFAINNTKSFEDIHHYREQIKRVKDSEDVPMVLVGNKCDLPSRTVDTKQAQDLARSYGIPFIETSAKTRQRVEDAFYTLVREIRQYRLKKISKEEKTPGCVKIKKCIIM
- assay_details: Binding to KRAS by surface plasmon resonance (SPR), Single Cycle Kinetics
- test_parameters: SPR Single Cycle Kinetics, GDP-bound KRAS wild-type protein, 1:1 binding model; read-out: KRAS KD
pKd: −log10 of the molar value. *1 amine or outer side, *2 acyl side, *3 side chain or, on linkers, in order; H or OH if unused. Where a SMILES comes first, the peptide text is derived from it. Bridges are numbered along the chain shown (N, C = ends). [ ]: non-standard residue; d: D form. The star is where a group is joined. X22 = O=C([C@H](Cc1ccc(C(F)(F)F)cc1)N(CC1CCCC1)[*:1])[*:2]; hPhe(3-Cl-4-CF3) = N[C@@H](CCc1ccc(C(F)(F)F)c(Cl)c1)C(=O)O; NPrPhe(4-CF3) = CCCN[C@@H](Cc1ccc(C(F)(F)F)cc1)C(=O)O; X15 = Cc1ccc(C[C@@H](C(=O)[*:2])N(CCC(C)C)[*:1])cc1; NMeGly(cPent) = CN[C@H](C(=O)O)C1CCCC1; Pro(4,4-F2) = O=C(O)[C@@H]1CC(F)(F)CN1; NMeD = CN[C@@H](CC(=O)O)C(=O)O; NMeL = CN[C@@H](CC(C)C)C(=O)O; Morpholide = C1CN(*)CCO1; Ac5c = NC1(C(=O)O)CCCC1; Aze = O=C(O)[C@@H]1CCN1; Ac4c = NC1(C(=O)O)CCC1; Sar = CNCC(=O)O
Please use True whenever pKd is not below 9, and False whenever it is.

compound	tested_target	class_assignment
CCO[C@@H]1C[C@H]2C(=O)NC3(CC(C)(C)C3)C(=O)N(C)[C@@H](C(CC)CC)C(=O)N(C)[C@H](C(=O)N(C)C)CC(=O)N(C)[C@@H](COC)C(=O)N[C@@H]([C@@H](C)CC)C(=O)N(C3CC3)CC(=O)N(C)[C@H]3C/C=C\CCN(C3=O)[C@@H](CC3CCC(F)(F)CC3)C(=O)N(C)CC(=O)N[C@@H](CCc3ccc(Cl)c(Cl)c3)C(=O)N2C1	GDP-bound KRAS wild-type protein (Homo sapiens)	False
CC[C@H](C)[C@@H]1NC(=O)[C@H](CC(C)C)N(C)C(=O)C[C@@H](C(=O)N2CCOCC2)N(CC)C(=O)[C@H](C2CCCC2)N(C)C(=O)C2(CCCC2)NC(=O)[C@@H]2CCCN2C(=O)[C@H](CCc2cc(F)c(C(F)(F)F)c(F)c2)NC(=O)CN(C)C(=O)[C@H](Cc2ccc(C(F)(F)F)cc2)N2CCCCC[C@@H](C2=O)N(C)C(=O)CN(C)C1=O	GDP-bound KRAS wild-type protein (Homo sapiens)	False
CCC[C@H]1C(=O)N[C@@H]([C@@H](C)CC)C(=O)N(C)CC(=O)N(C)[C@H]2C/C=C\CCN(C2=O)[C@@H](Cc2ccc(C)cc2)C(=O)N(C)CC(=O)N[C@@H](CCc2ccc3sc(F)c(C)c3c2)C(=O)N2C[C@H](OCC)C[C@H]2C(=O)NC2(CC(C)(C)C2)C(=O)N(C)[C@@H](C2CCCC2)C(=O)N(C)[C@H](C(=O)N(C)C)CC(=O)N1C	GDP-bound KRAS wild-type protein (Homo sapiens)	True
CCCN1C(=O)CN(C)C(=O)CNC(=O)[C@H]([C@@H](C)CC)NC(=O)[C@H](CC(C)C)N(C)C(=O)C[C@@H](C(=O)N2CCOCC2)N(C)C(=O)[C@H](C2CCCC2)N(C)C(=O)C2(CCC2)NC(=O)[C@@H]2CCCN2C(=O)[C@H](CCc2ccc(C(F)(F)F)c(Cl)c2)NC(=O)CN(C)C(=O)[C@@H]1Cc1ccc(C(F)(F)F)cc1 [PP0393] ([NMeL]IG[Sar][NPrPhe(4-CF3)][Sar][hPhe(3-Cl-4-CF3)]P[Ac4c][NMeGly(cPent)][NMeD]-Morpholide; lactam N-11)	GDP-bound KRAS wild-type protein (Homo sapiens)	True
CCCN1C(=O)[C@@H]2CCN2C(=O)CN(C)C(=O)[C@H]([C@@H](C)CC)NC(=O)[C@H](CC(C)C)N(C)C(=O)C[C@@H](C(=O)N2CCOCC2)N(C)C(=O)[C@H](C2CCCC2)N(C)C(=O)C2(CCCC2)NC(=O)[C@@H]2CC(F)(F)CN2C(=O)[C@H](CCc2ccc(C(F)(F)F)c(Cl)c2)NC(=O)CN(C)C(=O)[C@@H]1Cc1ccc(C(F)(F)F)cc1 [PP0408] ([NMeL]I[Sar][Aze][NPrPhe(4-CF3)][Sar][hPhe(3-Cl-4-CF3)][Pro(4,4-F2)][Ac5c][NMeGly(cPent)][NMeD]-Morpholide; lactam N-11)	GDP-bound KRAS wild-type protein (Homo sapiens)	True
CC[C@H](C)[C@@H]1NC(=O)[C@H](CC(C)C)N(C)C(=O)C[C@@H](C(=O)N2CCOCC2)N(C)C(=O)[C@H](C2CCCC2)N(C)C(=O)C2(CCCC2)NC(=O)[C@@H]2CCCN2C(=O)[C@H](CCc2ccc(C(F)(F)F)c(Cl)c2)NC(=O)CN(C)C(=O)[C@H](Cc2ccc(C(F)(F)F)cc2)N(CC2CCCC2)C(=O)CN(C)C(=O)CN(C)C1=O [PP0124] ([NMeL]I[Sar][Sar][X22][Sar][hPhe(3-Cl-4-CF3)]P[Ac5c][NMeGly(cPent)][NMeD]-Morpholide; lactam N-11)	GDP-bound KRAS wild-type protein (Homo sapiens)	False
CCC[C@H]1C(=O)N[C@@H]([C@@H](C)CC)C(=O)N(C)CC(=O)N(C)[C@H]2C/C=C\CCN(C2=O)[C@@H](Cc2ccc(C)cc2)C(=O)N(C)CC(=O)N[C@@H](CCc2ccc(C(F)(F)F)c(OC)c2)C(=O)N2C[C@H](OCC)C[C@H]2C(=O)NC2(CC(C)(C)C2)C(=O)N(C)[C@@H](CC(C)(C)C)C(=O)N(C)[C@H](C(=O)N(C)C)CC(=O)N1C	GDP-bound KRAS wild-type protein (Homo sapiens)	True
CCC[C@H]1C(=O)N[C@@H](CC(C)C)C(=O)N(C2CC2)CC(=O)N(C)[C@H]2C/C=C\CCN(C2=O)[C@@H](Cc2ccc(C)cc2)C(=O)N(C)CC(=O)N[C@@H](CCc2cc(F)c(C(F)(F)F)c(F)c2)C(=O)N2C[C@H](OCC)C[C@H]2C(=O)NC2(CCC2)C(=O)N(C)[C@@H](C2CCCC2)C(=O)N(C)[C@H](C(=O)N(C)C)CC(=O)N1C	GDP-bound KRAS wild-type protein (Homo sapiens)	False

Task: Please check the record CC[C@H](C)[C@@H]1NC(=O)[C@H](CC(C)C)N(C)C(=O)C[C@@H](C(=O)N2CCOCC2)N(C)C(=O)[C@H](C2CCCC2)N(C)C(=O)C2(CCCC2)NC(=O)[C@@H]2CCCN2C(=O)[C@H](CCc2ccc(C(F)(F)F)c(Cl)c2)NC(=O)CN(C)C(=O)[C@H](Cc2ccc(C)cc2)N(CCC(C)C)C(=O)CN(C)C(=O)CN(C)C1=O [PP0098] ([NMeL]I[Sar][Sar][X15][Sar][hPhe(3-Cl-4-CF3)]P[Ac5c][NMeGly(cPent)][NMeD]-Morpholide; lactam N-11) and state if its pKd is at or above 9.
Output: True
